Each entry below carries its recorded In vitro activity relative to native peptide (%), vs. GIP (cAMP EC50).
# testedTarget: T1, human GIP receptor (human, UniProt P48546 22-466)
# T1 sequence (looked up): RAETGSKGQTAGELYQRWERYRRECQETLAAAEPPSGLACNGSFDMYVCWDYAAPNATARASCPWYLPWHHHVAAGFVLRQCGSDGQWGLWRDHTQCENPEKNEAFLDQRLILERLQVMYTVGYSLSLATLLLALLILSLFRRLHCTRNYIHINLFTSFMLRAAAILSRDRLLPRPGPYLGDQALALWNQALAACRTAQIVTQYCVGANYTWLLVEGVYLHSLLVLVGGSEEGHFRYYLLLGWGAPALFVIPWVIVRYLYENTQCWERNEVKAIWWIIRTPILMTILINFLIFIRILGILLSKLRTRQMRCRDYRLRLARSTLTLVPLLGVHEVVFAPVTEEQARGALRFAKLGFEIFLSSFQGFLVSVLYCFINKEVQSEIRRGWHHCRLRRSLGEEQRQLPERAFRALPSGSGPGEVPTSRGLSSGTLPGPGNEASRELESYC
# procedureDetails: cell-based or functional assay
Positions of bridges follow the written chain, without caps; N, C: chain ends. Non-standard residues stand in square brackets, D forms with d. No end group written: not given here. *: point of attachment. Acetyl(2-(4-imidazolyl)) = O=C(Cc1c[nH]cn1)*; Aib = CC(C)(N)C(=O)O
Numeric answer only, unit % assumed.

A selection of reference data follows.
{"binder": "H[Aib]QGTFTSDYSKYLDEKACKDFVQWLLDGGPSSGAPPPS (bridge 16-20) [trigonal agonist of SEQ ID NO: 32]", "reported": 8.8}
{"binder": "{Acetyl(2-(4-imidazolyl))}-[Aib]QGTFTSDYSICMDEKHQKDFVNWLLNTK (bridge 15-19) [trigonal agonist of SEQ ID NO: 59]", "reported": 4}
{"binder": "Y[Aib]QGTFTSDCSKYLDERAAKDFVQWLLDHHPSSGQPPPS (bridge 16-20) [trigonal agonist of SEQ ID NO: 72]", "reported": 1.6}

Shift focus to the following entry.
Exam item: In vitro activity relative to native peptide (%), vs. GIP (cAMP EC50) lookup needed for H[Aib]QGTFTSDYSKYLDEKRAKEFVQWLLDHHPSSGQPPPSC (bridge 16-20) [trigonal agonist of SEQ ID NO: 50] , thanks.
Marked response: 2.7

Values compiled from patent US20230390362A1.
